# TARGET OF ASSAY: T1, Human CD3eg linker (human)
# T1 construct: single-chain construct; also called recombinant human CD3
# T1 chain: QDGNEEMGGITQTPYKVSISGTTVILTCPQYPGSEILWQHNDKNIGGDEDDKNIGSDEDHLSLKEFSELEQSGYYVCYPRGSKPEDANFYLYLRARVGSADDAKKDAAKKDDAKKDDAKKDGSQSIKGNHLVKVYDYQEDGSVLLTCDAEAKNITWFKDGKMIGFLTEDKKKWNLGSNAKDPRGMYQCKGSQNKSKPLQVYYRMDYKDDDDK
# TEST NAME: SPR, vs unmutated H183/L072
METRIC NAME: fold change of affinity

Request: Data request, read-out fold change of affinity, for dBBDu183H V63Q/dBBDu072L (antibody, name in Kabat numbering, V domains shown) VH: QVQLVESGGGLVQPGRSLRLSCAASGFTFSNAWMHWVRQAPGKGLEWVAQIKDKGNAYAAYYAPSQKGRFTISRDDSKNSIYLQMNSLKTEDTAVYYCHYVHYASASTVLPAFGVDAWGQGTTVTVSS VL: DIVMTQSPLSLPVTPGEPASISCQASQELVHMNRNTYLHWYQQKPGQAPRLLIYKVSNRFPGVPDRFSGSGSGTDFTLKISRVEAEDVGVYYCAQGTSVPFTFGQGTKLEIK
Result: 1.2 fold

Request: Data request, read-out fold change of affinity, for dBBDu183H V63Y/dBBDu072L (antibody, name in Kabat numbering, V domains shown) VH: QVQLVESGGGLVQPGRSLRLSCAASGFTFSNAWMHWVRQAPGKGLEWVAQIKDKGNAYAAYYAPSYKGRFTISRDDSKNSIYLQMNSLKTEDTAVYYCHYVHYASASTVLPAFGVDAWGQGTTVTVSS VL: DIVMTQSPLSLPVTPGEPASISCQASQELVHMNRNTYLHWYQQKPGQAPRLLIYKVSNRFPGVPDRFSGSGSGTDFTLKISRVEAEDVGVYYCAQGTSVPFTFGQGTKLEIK
Result: 1.1 fold

Request: Data request, read-out fold change of affinity, for dBBDu183H F100gG/dBBDu072L (antibody, name in Kabat numbering, V domains shown) VH: QVQLVESGGGLVQPGRSLRLSCAASGFTFSNAWMHWVRQAPGKGLEWVAQIKDKGNAYAAYYAPSVKGRFTISRDDSKNSIYLQMNSLKTEDTAVYYCHYVHYASASTVLPAGGVDAWGQGTTVTVSS VL: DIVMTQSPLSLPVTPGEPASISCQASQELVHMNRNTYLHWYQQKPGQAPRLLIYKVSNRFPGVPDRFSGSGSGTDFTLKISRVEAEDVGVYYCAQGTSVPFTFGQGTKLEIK
Result: 1.2 fold
